assay_text: Subcutaneous bioavailability in sc dosed Sprague-Dawley rat
experimental_setup: in vivo

{"record_smiles": "Cc1cc(C[C@@H](NC(=O)N2CCC(c3cc4ccccc4[nH]c3=O)CC2)C(=O)N2CCN(C3CCN(C)CC3)CC2)cc2cn[nH]c12", "bioavailability [%]": 82}

====

assay_text: Oral bioavailability in cynomolgus monkey
Type: ADME, organism-based, Macaca fascicularis
experimental_setup: in vivo

{"record_smiles": "Cc1cc(C[C@@H](NC(=O)N2CCC(c3cc4ccccc4[nH]c3=O)CC2)C(=O)N2CCN(C3CCN(C)CC3)CC2)cc2cn[nH]c12", "bioavailability / %": 0.3}

====

assayed_target: UniProt:P33261
Sequence (P33261 whole entry): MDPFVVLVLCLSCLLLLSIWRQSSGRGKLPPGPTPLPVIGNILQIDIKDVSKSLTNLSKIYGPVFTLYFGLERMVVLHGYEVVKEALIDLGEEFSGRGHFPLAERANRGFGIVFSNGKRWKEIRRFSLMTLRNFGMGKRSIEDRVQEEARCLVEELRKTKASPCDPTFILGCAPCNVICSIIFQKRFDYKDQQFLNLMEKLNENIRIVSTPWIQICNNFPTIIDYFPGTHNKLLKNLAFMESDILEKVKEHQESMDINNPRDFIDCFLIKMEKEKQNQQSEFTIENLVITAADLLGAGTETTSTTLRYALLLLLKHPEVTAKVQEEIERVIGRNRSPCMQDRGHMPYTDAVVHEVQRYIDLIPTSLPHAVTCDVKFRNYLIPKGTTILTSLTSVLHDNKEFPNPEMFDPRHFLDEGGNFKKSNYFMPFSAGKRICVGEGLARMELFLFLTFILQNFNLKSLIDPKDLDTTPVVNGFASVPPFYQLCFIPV

{"compound": "Cc1cc(C[C@@H](NC(=O)N2CCC(c3cc4ccccc4[nH]c3=O)CC2)C(=O)N2CCN(C3CCN(C)CC3)CC2)cc2cn[nH]c12 [ZAVEGEPANT]", "IC50": "> 40 µM"}

====

assay_text: Plasma concentration in intranasally dosed New Zealand White rabbit after 5 mins
Format: ADME, organism-based, Oryctolagus cuniculus
experimental_setup: inhaled or intranasal
metric: concentration at 5 min

{"compound": "Cc1cc(C[C@@H](NC(=O)N2CCC(c3cc4ccccc4[nH]c3=O)CC2)C(=O)N2CCN(C3CCN(C)CC3)CC2)cc2cn[nH]c12 [ZAVEGEPANT]", "result": "> 10 nM"}

====

assayed_target: Cytochrome P450 1A2 (Homo sapiens)
Sequence (P05177 whole entry): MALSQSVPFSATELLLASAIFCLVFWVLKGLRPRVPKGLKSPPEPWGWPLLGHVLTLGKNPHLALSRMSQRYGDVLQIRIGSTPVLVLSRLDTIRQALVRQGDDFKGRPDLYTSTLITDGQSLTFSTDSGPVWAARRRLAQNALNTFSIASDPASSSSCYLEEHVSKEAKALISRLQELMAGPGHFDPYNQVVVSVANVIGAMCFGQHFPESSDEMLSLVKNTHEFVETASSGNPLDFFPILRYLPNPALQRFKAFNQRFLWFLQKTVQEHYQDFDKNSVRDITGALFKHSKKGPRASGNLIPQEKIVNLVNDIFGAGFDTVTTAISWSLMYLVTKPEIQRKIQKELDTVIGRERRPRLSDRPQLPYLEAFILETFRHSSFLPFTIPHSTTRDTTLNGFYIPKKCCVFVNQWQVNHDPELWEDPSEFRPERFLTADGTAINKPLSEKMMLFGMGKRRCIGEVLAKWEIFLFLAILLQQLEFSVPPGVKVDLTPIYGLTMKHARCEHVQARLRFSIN
pIC50: −log10 of the molar value.

{"record_smiles": "Cc1cc(C[C@@H](NC(=O)N2CCC(c3cc4ccccc4[nH]c3=O)CC2)C(=O)N2CCN(C3CCN(C)CC3)CC2)cc2cn[nH]c12", "assayed_target": "Cytochrome P450 1A2 (Homo sapiens)", "pIC50": "< 4.40"}
